- target: Receptor tyrosine-protein kinase erbB-2 (Homo sapiens, UniProt P04626); note: assay procedure not described here
- Sequence (P04626 whole entry): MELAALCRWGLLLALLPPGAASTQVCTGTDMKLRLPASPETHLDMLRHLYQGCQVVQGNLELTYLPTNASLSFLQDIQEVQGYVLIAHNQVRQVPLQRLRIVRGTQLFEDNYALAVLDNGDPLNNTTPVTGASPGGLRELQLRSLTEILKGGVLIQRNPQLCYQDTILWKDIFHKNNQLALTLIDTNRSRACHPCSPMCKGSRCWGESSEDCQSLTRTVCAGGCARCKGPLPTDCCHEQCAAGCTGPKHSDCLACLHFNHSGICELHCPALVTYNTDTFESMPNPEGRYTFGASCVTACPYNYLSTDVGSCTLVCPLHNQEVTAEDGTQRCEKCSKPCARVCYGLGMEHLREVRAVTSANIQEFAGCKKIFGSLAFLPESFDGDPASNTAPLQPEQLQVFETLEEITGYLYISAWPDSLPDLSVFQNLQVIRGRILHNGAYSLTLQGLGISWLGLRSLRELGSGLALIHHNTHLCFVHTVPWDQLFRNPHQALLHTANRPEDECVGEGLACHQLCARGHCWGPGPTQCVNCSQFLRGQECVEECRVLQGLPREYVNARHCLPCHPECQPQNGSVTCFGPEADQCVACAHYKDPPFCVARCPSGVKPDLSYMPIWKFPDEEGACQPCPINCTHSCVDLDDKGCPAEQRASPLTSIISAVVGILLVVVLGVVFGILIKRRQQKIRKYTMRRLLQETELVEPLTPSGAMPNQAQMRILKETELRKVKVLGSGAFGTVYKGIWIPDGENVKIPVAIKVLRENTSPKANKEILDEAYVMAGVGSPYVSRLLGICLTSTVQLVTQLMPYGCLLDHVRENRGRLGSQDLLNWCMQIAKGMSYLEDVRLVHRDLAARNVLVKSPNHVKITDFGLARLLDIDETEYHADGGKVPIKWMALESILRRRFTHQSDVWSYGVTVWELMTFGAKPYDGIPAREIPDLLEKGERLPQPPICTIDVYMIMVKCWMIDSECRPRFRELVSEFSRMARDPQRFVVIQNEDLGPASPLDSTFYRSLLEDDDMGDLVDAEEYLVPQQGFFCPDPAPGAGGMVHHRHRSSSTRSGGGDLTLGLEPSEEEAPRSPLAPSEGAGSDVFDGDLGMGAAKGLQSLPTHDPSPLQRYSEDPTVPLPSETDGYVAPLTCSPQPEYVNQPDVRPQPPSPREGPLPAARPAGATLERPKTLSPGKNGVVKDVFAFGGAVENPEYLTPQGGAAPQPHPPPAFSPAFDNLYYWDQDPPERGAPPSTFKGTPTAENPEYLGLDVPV
- Format: functional
attribute measured: AC50

Quick note, AC50 for CC(=N)N1CC[C@H](SC2=C(C(=O)O)N3C(=O)[C@H]([C@@H](C)O)[C@H]3C2)C1 landed at > 300 µM

Input CCCN(CCc1cccs1)[C@H]1CCc2c(O)cccc2C1 . Output AC50: > 30 µM

Looking up CC(=O)S[C@@H]1CC2=CC(=O)CC[C@]2(C)[C@H]2CC[C@@]3(C)[C@@H](CC[C@@]34CCC(=O)O4)[C@H]12 , I found its AC50 recorded as > 30 µM

For reference, reported AC50 for CC(C)C[C@H](CN)CC(=O)O stands at > 30 µM

* * *

Consider the following compounds; for each one, report its AC50.
- target: Thromboxane A2 receptor (Homo sapiens); note: assay procedure not described here
- Sequence (P21731 whole entry): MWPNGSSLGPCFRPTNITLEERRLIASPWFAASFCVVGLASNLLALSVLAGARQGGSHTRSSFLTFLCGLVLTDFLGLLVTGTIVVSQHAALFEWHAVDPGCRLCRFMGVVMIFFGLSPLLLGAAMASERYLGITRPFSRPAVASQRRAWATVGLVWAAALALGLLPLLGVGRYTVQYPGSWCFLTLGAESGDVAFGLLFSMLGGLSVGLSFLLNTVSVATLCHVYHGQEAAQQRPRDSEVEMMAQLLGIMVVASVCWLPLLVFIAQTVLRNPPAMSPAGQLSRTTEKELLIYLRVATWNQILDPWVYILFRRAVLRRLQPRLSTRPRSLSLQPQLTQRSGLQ
- Type: functional, cell-based

For reference, reported AC50 for O=C1c2c(O)cccc2Cc2cccc(O)c21 stands at > 30 µM

Reported AC50 for C[C@]12CC[C@@H]3c4ccc(O)cc4CC[C@H]3[C@@H]1CC[C@@H]2OC(=O)CCC1CCCC1 [ESTRADIOL CYPIONATE] was > 30 µM

So for CCCCCCCC(=O)N[C@H](CN1CCCC1)[C@H](O)c1ccc2c(c1)OCCO2 , the logged AC50 turned out to be > 30 µM

Please fill in: AC50 reported for COCCCOc1ccnc(C[S+]([O-])c2nc3ccccc3[nH]2)c1C (configuration not stated) = > 30 µM

Given item C[C@H]1O[C@@H](O[C@H]2[C@@H](O)C[C@H](O[C@H]3[C@@H](O)C[C@H](O[C@H]4CC[C@@]5(C)[C@H](CC[C@@H]6[C@@H]5CC[C@]5(C)[C@@H](C7=CC(=O)OC7)CC[C@]65O)C4)O[C@@H]3C)O[C@@H]2C)C[C@H](O)[C@@H]1O , the value recorded as its AC50 is > 30 µM

Lookup result for CC(=O)O[C@H]1C[C@H](O[C@H]2[C@@H](O)C[C@H](O[C@H]3[C@@H](O)C[C@H](O[C@H]4CC[C@@]5(C)[C@H](CC[C@@H]6[C@@H]5C[C@@H](O)[C@]5(C)[C@@H](C7=CC(=O)OC7)CC[C@]65O)C4)O[C@@H]3C)O[C@@H]2C)O[C@H](C)[C@H]1O[C@@H]1O[C@H](CO)[C@@H](O)[C@H](O)[C@H]1O [LANATOSIDE C] ; measured AC50: > 30 µM

get_value(item= CNC(=O)C[C@@H](N)C(=O)N[C@@H](C(=O)N[C@@H]1C(=O)N2[C@@H]1SC(C)(C)[C@@H]2C(=O)O)c1ccc(O)cc1 , readout=AC50) returns > 30 µM

For record C1CNCCN1 the listed AC50 is > 30 µM

get_value(item= CCSc1ccc2c(c1)N(CCCN1CCN(C)CC1)c1ccccc1S2 , readout=AC50) returns > 30 µM

// CC(=O)Oc1ccccc1C(=O)Nc1ncc([N+](=O)[O-])s1 [NITAZOXANIDE] : AC50 value = > 30 µM

Per the records, this compound ( C[C@@H]1C[C@H]2[C@@H]3CCC4=CC(=O)C=C[C@]4(C)C3=CC[C@]2(C)[C@H]1C(=O)CN1CCN(c2cc(N3CCCC3)nc(N3CCCC3)n2)CC1 ) has AC50 equal to > 30 µM

Short answer for CC(C)(N)C(=O)N[C@H](Cc1c[nH]c2ccccc12)C(=O)N[C@H](Cc1c[nH]c2ccccc12)NC=O : AC50 was > 30 µM

Form: compound = CCCCNc1ccc(C(=O)OCCN(C)C)cc1 ; AC50 = > 30 µM

response.value for O=C(Oc1ccccc1C(=O)O)c1ccccc1O [SALSALATE] (field: AC50) = > 30 µM

For reference, reported AC50 for CN1CCC[C@H]1c1cccnc1 stands at > 30 µM

Lab note: CCn1cc(C(=O)O)c(=O)c2cc(F)c(N3CCNCC3)nc21 gave AC50 of > 30 µM

# compound N[C@@H](Cc1c[nH]c2ccc(O)cc12)C(=O)O ; its AC50 = > 30 µM

* * *

- target: Muscarinic acetylcholine receptor M3 (Homo sapiens, UniProt P20309); note: assay procedure not described here
- Sequence (P20309 whole entry): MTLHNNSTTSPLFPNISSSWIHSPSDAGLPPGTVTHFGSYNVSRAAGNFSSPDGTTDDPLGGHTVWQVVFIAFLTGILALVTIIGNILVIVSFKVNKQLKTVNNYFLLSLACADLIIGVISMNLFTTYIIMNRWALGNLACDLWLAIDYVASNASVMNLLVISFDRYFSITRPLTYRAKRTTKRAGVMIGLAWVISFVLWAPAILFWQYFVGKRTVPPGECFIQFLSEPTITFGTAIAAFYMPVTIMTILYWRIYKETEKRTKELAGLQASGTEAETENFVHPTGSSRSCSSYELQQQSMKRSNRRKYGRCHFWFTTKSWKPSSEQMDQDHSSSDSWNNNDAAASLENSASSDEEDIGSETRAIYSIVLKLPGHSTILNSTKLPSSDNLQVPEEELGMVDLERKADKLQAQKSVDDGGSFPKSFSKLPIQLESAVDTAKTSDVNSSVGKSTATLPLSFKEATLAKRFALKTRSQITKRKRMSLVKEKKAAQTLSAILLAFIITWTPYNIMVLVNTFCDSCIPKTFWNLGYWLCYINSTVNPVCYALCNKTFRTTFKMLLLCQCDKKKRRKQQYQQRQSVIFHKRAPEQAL
attribute measured: AC50

Notebook: Cc1ccc(=O)n(-c2ccccc2)c1 , AC50 read as > 30 µM

Sample CC(=N)N1CC[C@H](SC2=C(C(=O)O)N3C(=O)[C@H]([C@@H](C)O)[C@H]3C2)C1 ; AC50 observed: 290 µM

According to the records, this molecule O=C1CN=C(c2ccccc2)c2cc(Cl)ccc2N1 displays AC50 of > 10 µM

// AC50 lookup, molecule = CC(C)=CCOc1ccc(/C=C/C(=O)c2ccc(OCC=C(C)C)cc2OCC(=O)O)cc1 , result: > 30 µM

The molecule identified as O=C(Nc1nc(-c2cc(Cl)cs2)c(N2CCN(C3CCCCC3)CC2)s1)c1cnc(N2CCC(C(=O)O)CC2)c(Cl)c1 registered its AC50 at > 10 µM

# AC50 (molecule: CNC[C@H](O)c1cccc(O)c1 ) is > 30 µM

response.value for NC(=O)CCC/N=C(\c1ccc(Cl)cc1)c1cc(F)ccc1O [PROGABIDE] (field: AC50) = > 30 µM

Value of AC50 reported for the molecule Oc1c(I)cc(Cl)c2cccnc12 is > 30 µM

Short answer for CN(C)c1cc(CNCC(C)(C)C)c(O)c2c1C[C@H]1C[C@H]3[C@H](N(C)C)C(O)=C(C(N)=O)C(=O)[C@@]3(O)C(O)=C1C2=O : AC50 was > 30 µM

Consider C#C[C@]1(O)CC[C@H]2[C@@H]3CCC4=CC(=O)CCC4=C3C=C[C@@]21CC . Its measured AC50 is > 30 µM

Reported AC50 of CNCC[C@@H](Oc1ccccc1C)c1ccccc1 : > 30 µM

// sample NS(=O)(=O)c1cc(C(=O)O)cc(N2CCCC2)c1Oc1ccccc1 [PIRETANIDE] , its AC50 was > 30 µM

Consider CCN(CC)CCOC(=O)c1ccc(N)cc1Cl . Its measured AC50 is 18 µM

Lab book: AC50 of CC(C)c1cc2c(cc1S(=O)(=O)O)[C@@]1(C)CCC[C@@](C)(C(=O)O)[C@@H]1CC2 noted as > 30 µM

Entry Clc1ccc(C(Cn2ccnc2)OCc2ccc(Sc3ccccc3)cc2)c(Cl)c1 (stereo not given) ; AC50 = 21 µM

* * *

- target: 3',5'-cyclic-AMP phosphodiesterase 4D (Homo sapiens); note: assay procedure not described here
- Sequence (Q08499 whole entry): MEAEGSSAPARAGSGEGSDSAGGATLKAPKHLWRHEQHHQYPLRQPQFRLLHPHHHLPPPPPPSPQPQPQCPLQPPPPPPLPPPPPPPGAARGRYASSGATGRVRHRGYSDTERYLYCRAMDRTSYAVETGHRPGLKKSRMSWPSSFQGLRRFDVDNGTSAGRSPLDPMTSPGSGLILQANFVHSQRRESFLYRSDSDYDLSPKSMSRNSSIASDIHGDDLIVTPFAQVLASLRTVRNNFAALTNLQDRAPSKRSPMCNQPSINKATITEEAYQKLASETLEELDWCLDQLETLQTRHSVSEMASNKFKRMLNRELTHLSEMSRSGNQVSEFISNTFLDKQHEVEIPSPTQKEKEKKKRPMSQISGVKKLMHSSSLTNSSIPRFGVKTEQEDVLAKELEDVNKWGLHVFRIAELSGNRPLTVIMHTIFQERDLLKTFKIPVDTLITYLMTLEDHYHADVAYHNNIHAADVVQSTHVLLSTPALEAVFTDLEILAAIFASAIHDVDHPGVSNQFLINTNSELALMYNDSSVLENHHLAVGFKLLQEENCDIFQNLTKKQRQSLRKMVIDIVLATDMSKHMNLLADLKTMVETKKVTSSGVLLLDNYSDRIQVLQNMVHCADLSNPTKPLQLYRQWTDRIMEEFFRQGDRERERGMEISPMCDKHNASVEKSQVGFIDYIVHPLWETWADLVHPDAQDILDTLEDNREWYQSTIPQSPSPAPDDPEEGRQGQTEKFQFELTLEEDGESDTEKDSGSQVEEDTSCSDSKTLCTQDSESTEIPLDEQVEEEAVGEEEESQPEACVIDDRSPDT
- Type: functional
attribute measured: AC50

Measured AC50, N#Cc1ccccc1-c1cc(-c2ccccn2)cn(-c2ccccc2)c1=O : 13 µM

Recorded result, COC(=O)N[C@@H](C)CNc1nccc(-c2cn(C(C)C)nc2-c2cc(Cl)cc(NS(C)(=O)=O)c2F)n1 , AC50: 4.4 µM

Noted for CCOC(=O)NNc1ccc(N(CC)CC(C)O)nn1 (centres undefined) : its AC50 reads > 30 µM

// AC50 lookup, compound = NCCCC(O)(P(=O)(O)O)P(=O)(O)O , result: > 30 µM

response.value for NS(=O)(=O)c1cc(C2(O)NC(=O)c3ccccc32)ccc1Cl (centres undefined) (field: AC50) = > 30 µM

Entry NC(=O)CCC/N=C(\c1ccc(Cl)cc1)c1cc(F)ccc1O [PROGABIDE] , AC50 reported as > 10 µM

Record CCCN(CCc1cccs1)[C@H]1CCc2c(O)cccc2C1 . Reported AC50: > 30 µM

Short answer for CCN(CC)CC(=O)Oc1ccc(NC(C)=O)cc1 : AC50 was > 30 µM

Entry CC[C@@H](CO)NC(=O)[C@@H]1C=C2c3cccc4[nH]cc(c34)C[C@H]2N(C)C1 ; AC50 = > 30 µM

AC50 recorded for this compound, CC(C)OC(=O)C(C(=O)OC(C)C)=C1SC=CS1 [MALOTILATE] , is 4.2 µM

Entry CCCC(C)(COC(N)=O)COC(=O)NC(C)C (centres undefined) — recorded AC50 = > 30 µM

Per the record, COc1ccnc(C[S+]([O-])c2nc3ccc(OC(F)F)cc3[nH]2)c1OC (centres undefined) has AC50 of > 30 µM

AC50 reported for this compound CCC(=O)O[C@@H](O[P@](=O)(CCCCc1ccccc1)CC(=O)N1C[C@H](C2CCCCC2)C[C@H]1C(=O)O)C(C)C : > 30 µM

Lab note: measured AC50 of O=C(O)c1cc(O)c2c3nc4ccccc4oc-3cc(=O)c2n1 was > 30 µM

Data point: CCCCC1(CC)C(=O)NC(=O)NC1=O ; AC50 = > 30 µM

Entry COc1ccc(/C=C/C(=O)Nc2ccccc2C(=O)O)cc1OC , AC50 reported as 21 µM

Memo: [H]/N=C(\N/C(=N/[H])NCCCCCCNC(=N)NC(=N)Nc1ccc(Cl)cc1)Nc1ccc(Cl)cc1 , reported AC50: > 10 µM

For Nc1nc2c(c(=O)[nH]1)N(C=O)C(CNc1ccc(C(=O)N[C@@H](CCC(=O)O)C(=O)O)cc1)CN2 (some centres undefined) the compound record lists AC50 as > 30 µM

The reported AC50 of the compound CS(=O)(=O)OCCCCOS(C)(=O)=O was > 30 µM
